Hey, just so you know, these numbers are from PubChem BioAssay (NCI).

- Test system: SF-539 CNS
- protocolSummary: NCI tumour cell line growth inhibition, 48 h; in the data active = GI50 below about 0.43 µM; inactive = the rest
Response enum: active, inactive

Example cases with answers are listed next.
moleculeSmiles	classification
CNCCNc1nc2ccccc2c2c(=O)c3cc(OC)ccc3sc12	inactive
CC[C@@]12C=CCN3CC[C@]4(c5cc(NC(=O)COc6cc(OCC(=O)Nc7cc8c(cc7OC)N(C)[C@H]7[C@@](O)(C(=O)OC)[C@H](OC(C)=O)[C@]9(CC)C=CCN%10CC[C@]87[C@@H]%109)cc7oc(-c8ccccc8)cc(=O)c67)c(OC)cc5N(C)[C@@H]4[C@](O)(C(=O)OC)[C@H]1OC(C)=O)[C@H]32	inactive
CCCCCCNC(=O)n1cc(F)c(=O)[nH]c1=O	inactive
O=C(N/N=C/c1ccc(Cl)cc1)c1[nH]c2ccc(Cl)cc2c1-c1ccccc1	active
CNCCNc1nc2ccccc2c2c(=O)c3cc(F)ccc3sc12	inactive
CC(=O)c1cccc(-c2cccc(-c3ccn(CCN4CCOCC4)n3)c2)c1	inactive

stdin: Which outcome did this test record for the molecule Cc1cc2nc(-c3c(N)ncc(C#N)c3-c3ccc(Cl)cc3)[nH]c2cc1C ?
stdout: inactive

stdin: Which outcome did this test record for the molecule CCOC(=O)c1c2c(n(Cc3ccccc3)c1C)-c1nc(Cc3ccccc3)[nH]c1C(=O)C2=O ?
stdout: inactive
